The molecules listed here are annotated with their viability at 10 µM.
# Tested on: HepG2
# Test Summary: Antiproliferative activity against human HepG2 cells assessed as cell viability at 10 uM after 48 hrs by MTT assay relative to control
# Type: functional
# Conditions: read-out: Activity

Structure String | Unit Tag | viability at 10 µM
CNC(=O)c1cc(-n2ccc3cc(NS(=O)(=O)c4cccc(C(F)(F)F)c4)ccc32)ccn1 | % | 88
CNC(=O)c1cc(-n2ccc3cc(NC(=O)c4ccccc4)ccc32)ccn1 | % | 99
CNC(=O)c1cc(-n2ccc3cc(NC(=S)Nc4ccc(Cl)c(Cl)c4)ccc32)ccn1 | % | 79
CNC(=O)c1cc(-n2ccc3cc(NC(=O)c4cccc(C(F)(F)F)c4)ccc32)ccn1 | % | 34
CNC(=O)c1cc(-n2ccc3cc(NC(=O)Nc4cc(C(F)(F)F)cc(C(F)(F)F)c4)ccc32)ccn1 | % | 55
CNC(=O)c1cc(-n2ccc3cc(NC(=O)c4ccc(N5CCOCC5)c(C(F)(F)F)c4)ccc32)ccn1 | % | 72
CNC(=O)c1cc(-n2ccc3cc(NS(=O)(=O)c4ccc(Cl)c(C(F)(F)F)c4)ccc32)ccn1 | % | 97
CNC(=O)c1cc(-n2ccc3cc(NC(=S)Nc4cccc(C(F)(F)F)c4)ccc32)ccn1 | % | 81
